Source listed as ChEMBL document CHEMBL4229344.

# assay-remarks: AUC (0 to infinity) in Sprague-Dawley rat at 10 mg/kg, po
# Type: ADME, organism-based
# Parameters: dose 10 mg/kg, route oral, time infinity
# measurement-context: in vivo
outcome-measure: AUC(0-inf)
Param answer (str): number followed by unit.

input-smiles	AUC(0-inf)
Cc1ccc(NC(=O)c2ccc(CN(CCN(C)C)C(=O)c3cccnc3)cc2)cc1Nc1nccc(-c2cccnc2)n1	115 ng·h/mL

# get_value(readout='AUC(0-inf)', item= `Cc1ccc(NC(=O)c2ccc(CN3CCN(C)CC3)cc2)cc1Nc1nccc(-c2cccnc2)n1` )
6650 ng·h/mL

---

# assay-remarks: Cmax in Sprague-Dawley rat at 1 mg/kg, iv
# Format: ADME, organism-based
# Design: dose 1 mg/kg, route intravenous
# measurement-context: in vivo
Here, each record is paired with measured Cmax data.
Param answer (str): number followed by unit.

input-smiles	Cmax
Cc1ccc(NC(=O)c2ccc(CN(CCN(C)C)C(=O)c3cccnc3)cc2)cc1Nc1nccc(-c2cccnc2)n1	4590 ng/mL

# get_value(readout='Cmax', item= `Cc1ccc(NC(=O)c2ccc(CN3CCN(C)CC3)cc2)cc1Nc1nccc(-c2cccnc2)n1` )
547 ng/mL

---

# assay-remarks: Tmax in Sprague-Dawley rat at 1 mg/kg, iv
# Assay type: ADME, organism-based
# measurement-context: in vivo
outcome-measure: Tmax (min)
Hi! Could you send only the number? It should be in min, unit omitted.

input-smiles	endpoint-value
Cc1ccc(NC(=O)c2ccc(CN(CCN(C)C)C(=O)c3cccnc3)cc2)cc1Nc1nccc(-c2cccnc2)n1	1.02

# get_value(readout='Tmax', item= `Cc1ccc(NC(=O)c2ccc(CN3CCN(C)CC3)cc2)cc1Nc1nccc(-c2cccnc2)n1` )
1.02

---

# assay-remarks: Half life in Sprague-Dawley rat at 1 mg/kg, iv
# Assay type: ADME, organism-based
# measurement-context: in vivo
outcome-measure: half-life (h)
Hi! Could you send only the number? It should be in h, unit omitted.

# get_value(readout='half-life', item= `Cc1ccc(NC(=O)c2ccc(CN(CCN(C)C)C(=O)c3cccnc3)cc2)cc1Nc1nccc(-c2cccnc2)n1` )
2.05

---

Here, each record is paired with measured GI50 data.
# assay-system: Platelet-derived growth factor receptor alpha (Homo sapiens, UniProt P16234)
# Sequence (P16234 whole entry): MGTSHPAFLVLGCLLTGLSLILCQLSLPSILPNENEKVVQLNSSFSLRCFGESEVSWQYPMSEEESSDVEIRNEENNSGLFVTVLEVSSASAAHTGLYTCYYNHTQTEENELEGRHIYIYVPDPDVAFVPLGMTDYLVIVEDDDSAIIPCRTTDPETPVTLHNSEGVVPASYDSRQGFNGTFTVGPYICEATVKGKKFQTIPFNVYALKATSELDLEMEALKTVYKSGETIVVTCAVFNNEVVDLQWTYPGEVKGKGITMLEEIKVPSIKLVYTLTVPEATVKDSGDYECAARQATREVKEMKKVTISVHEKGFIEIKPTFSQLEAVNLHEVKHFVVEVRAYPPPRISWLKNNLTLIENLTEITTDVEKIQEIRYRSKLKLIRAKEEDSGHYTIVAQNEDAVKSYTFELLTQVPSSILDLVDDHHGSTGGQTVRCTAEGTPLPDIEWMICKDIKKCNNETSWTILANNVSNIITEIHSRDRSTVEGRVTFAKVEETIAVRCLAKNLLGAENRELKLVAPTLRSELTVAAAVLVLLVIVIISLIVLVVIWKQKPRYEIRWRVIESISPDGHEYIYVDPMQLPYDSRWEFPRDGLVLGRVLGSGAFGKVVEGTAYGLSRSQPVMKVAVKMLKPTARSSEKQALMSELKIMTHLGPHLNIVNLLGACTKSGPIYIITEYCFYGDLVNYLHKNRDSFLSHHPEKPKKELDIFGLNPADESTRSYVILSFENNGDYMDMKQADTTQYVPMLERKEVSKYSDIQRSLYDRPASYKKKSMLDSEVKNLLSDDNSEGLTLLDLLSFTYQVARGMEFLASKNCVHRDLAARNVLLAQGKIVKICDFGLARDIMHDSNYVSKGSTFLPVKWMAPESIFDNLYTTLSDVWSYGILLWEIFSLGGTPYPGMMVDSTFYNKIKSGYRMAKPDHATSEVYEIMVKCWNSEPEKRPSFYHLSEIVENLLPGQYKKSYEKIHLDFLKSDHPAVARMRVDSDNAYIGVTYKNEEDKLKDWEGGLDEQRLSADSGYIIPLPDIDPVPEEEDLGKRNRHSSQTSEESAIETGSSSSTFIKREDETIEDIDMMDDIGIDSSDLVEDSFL
Hi! Could you send only the number? It should be in nM, unit omitted.

# get_value(readout='GI50', item= `Cc1ccc(NC(=O)c2ccc(NC(=O)c3cccnc3)cc2)cc1Nc1nccc(-c2cccnc2)n1` )
13

Subsequent entry: `CCC(=O)Nc1cc(C(=O)Nc2ccc(C)c(Nc3nccc(-c4cccnc4)n3)c2)cc(C(F)(F)F)c1`
39

Subsequent entry: `Cc1ccc(NC(=O)c2ccc(CNC(=O)c3cccnc3)cc2)cc1Nc1nccc(-c2cccnc2)n1`
14

Subsequent entry: `Cc1ccc(NC(=O)c2ccc(CN(CCN(C)C)C(=O)c3cccnc3)cc2)cc1Nc1nccc(-c2cccnc2)n1`
34

Subsequent entry: `C=CC(=O)Nc1cccc(C(=O)Nc2ccc(C)c(Nc3nccc(-c4cccnc4)n3)c2)c1`
8

Subsequent entry: `CCC(=O)NCc1ccc(C(=O)Nc2ccc(C)c(Nc3nccc(-c4cccnc4)n3)c2)cc1`
14

Subsequent entry: `C=CC(=O)N(CCC(C)C)Cc1ccc(C(=O)Nc2ccc(C)c(Nc3nccc(-c4cccnc4)n3)c2)cc1`
19

Subsequent entry: `C=CC(=O)NCc1cccc(C(=O)Nc2ccc(C)c(Nc3nccc(-c4cccnc4)n3)c2)c1`
160
